Each recorded value in this set is attributed to PubChem BioAssay (NCATS).

test: S16 Schwann cell viability assay (CellTiter-Glo assay) (AID 624031);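 further: native untransfected S16 rat Schwann cells; cellular ATP luminescence as a viability measure; plate controls were DMSO-treated cells for no effect and cell-free wells for full effect; nearly all actives have a fitted effect of over 70% in size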
measurement parameters: S16 rat Schwann cells viability, 24 h; series mostly up to 57.5 µM
Records with an inconclusive call do not appear. Active and inactive are the calls of the source. The call rests on the fitted dose curve; in most records, active means well fitted cell-killing curve with a large enough effect; inconclusive means small, poorly fitted or top-dose-only effect, or effect the other way; inactive means flat fitted curve, though single readings scatter.
Outcomes you can answer with include only these: 1 = active, 0 = inactive

Reference set (2 entries):
OC/C=C/c1ccccc1    0
CC1(C)S[C@@H]2[C@H](NC(=O)C3(N)CCCCC3)C(=O)N2[C@H]1C(=O)O    0

Inquiry: Record request — test call for Cc1c(Cl)cccc1Nc1ncccc1C(=O)O
Reply text: 0

* * *

test: qHTS assay to identify small molecule inhibitors of chordoma cells - UCH-1 (AID 1259355); further: on the % scale 0 is the no-effect control and ±100 the full control effect; nearly all actives have a fitted effect of over 55% in size
measurement parameters: UCH-1 chordoma viability, CellTiter-Glo, 48 h, combination, with auranofin plus four topoisomerase inhibitors; series mostly up to 46.1 µM
Records with an inconclusive call do not appear. Active and inactive are the calls of the source. The call rests on the fitted dose curve; in most records, active means well fitted cell-killing curve with a large enough effect; inconclusive means small, poorly fitted or top-dose-only effect, or effect the other way; inactive means no such curve, though single readings can be large or run the other way.
Outcomes you can answer with include only these: YES (active), NO (inactive)

O=C(O)[C@@H]1C[C@H](CP(=O)(O)O)CCN1    NO
CN[C@@H]1[C@@H](O)[C@@H](O[C@@H]2[C@@H](O)[C@H](OC3OC(CN)=CCC3N)[C@@H](N)C[C@H]2N)OC[C@]1(C)O (some centres undefined)    NO
Cc1cccc(Nc2ncccc2C(=O)O)c1C    NO

Inquiry: Record request — test call for CC(=O)Nc1ccc(OC(=O)c2ccccc2O)cc1
Reply text: NO

Inquiry: Record request — test call for CCCc1nc(C(C)(C)O)c(C(=O)OCc2oc(=O)oc2C)n1Cc1ccc(-c2ccccc2-c2nn[nH]n2)cc1
Reply text: NO

Inquiry: Record request — test call for C=CCCCCCCCCC(=O)OC
Reply text: NO

Inquiry: Record request — test call for CCCOC(=O)c1ccccc1O
Reply text: NO

* * *

test: P-glycoprotein substrates identified in KB-8-5-11 adenocarcinoma cell line, qHTS therapeutic library screen (AID 1346987); further: nearly all actives have a fitted effect of over 65% in size
measurement parameters: KB-8-5-11 (P-gp overexpressing) viability, CellTiter-Glo, 72 h; series mostly up to 44.5 µM
Records with an inconclusive call do not appear. Active and inactive are the calls of the source. Calls follow the shape of the dose curve; as a rule, active = well fitted inhibition curve with a large enough effect; inconclusive = small, poorly fitted or top-dose-only effect; inactive = flat fitted curve, though single readings scatter.
Outcomes you can answer with include only these: YES (active), NO (inactive)

CC(C)(C)CC(C)(C)c1cc(Cc2cc(C(C)(C)CC(C)(C)C)cc(-n3nc4ccccc4n3)c2O)c(O)c(-n2nc3ccccc3n2)c1    NO
O=[N+]([O-])O[C@@H]1CO[C@H]2[C@@H]1OC[C@@H]2O    NO
NC(=O)OCC(O)COc1ccc(Cl)cc1 (stereo not given)    NO
CC(CNC(=O)c1cccnc1)NC(=O)c1cccnc1 (stereo not given)    NO
CCCCC(O)c1ccccc1 (stereo not given)    NO

Inquiry: Record request — test call for CN=C1C=CC(=C(c2ccc(N(C)C)cc2)c2ccc(N(C)C)cc2)C=C1
Reply text: YES

Inquiry: Record request — test call for CCC(C(=O)NC(N)=O)c1ccccc1 (stereo not given)
Reply text: NO

Inquiry: Record request — test call for COC(=O)c1ccccc1O
Reply text: NO

Inquiry: Record request — test call for CO/N=C(\C(=O)N[C@@H]1C(=O)N2C(C(=O)O)=CCS[C@H]12)c1csc(N)n1
Reply text: NO

Inquiry: Record request — test call for CC1(C)C(\C=C/C=C\C=C/C=C2/N(CCCCS(=O)(=O)O)c3ccc4ccccc4c3C2(C)C)=[N+](CCCCS(=O)(=O)[O-])c2ccc3ccccc3c21
Reply text: NO

* * *

Listing of recorded max response by entry.
Test system: KB-3-1
test: Cytotoxic Profiling of Annotated Libraries Using Quantitative High-Throughput Screening (AID 1296008); further: on the % scale 0 is the no-effect control and ±100 the full control effect; nearly all actives have a fitted effect of over 60% in size
measurement parameters: Five cell lines viability, CellTiter-Glo ATP luminescence, 48-72 h; stronger effect = lower value
Records with an inconclusive call do not appear.
Supply the numeric figure in %, leaving out any unit text.

O=C1/C(=C\c2cccs2)CCC/C1=C\c1cccs1    8.4
S=C1SCN(Cc2ccccc2)CN1Cc1ccccc1    37.7

Inquiry: Identify max response associated with the compound CC(=O)Oc1cc(C(F)(F)F)ccc1C(=O)O
Reply text: 0.097

Inquiry: Identify max response associated with the compound CCCCCCCCCCCCCCCCCC[N+](C)(C)CCC[Si](OC)(OC)OC
Reply text: 8.62

Inquiry: Identify max response associated with the compound O=C1CCC(=O)N1CO
Reply text: -1.35

Inquiry: Identify max response associated with the compound CC(C)C[C@@H](NC(=O)[C@@H](O)[C@H](N)Cc1ccccc1)C(=O)O
Reply text: 11

* * *

test: qHTS profiling for inhibitors of Plasmodium falciparum proliferation (AID 504749);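 further: 0% = DMSO vehicle and full inhibition = artemisinin control; nearly all actives have a fitted effect of over 60% in size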
measurement parameters: P. falciparum in erythrocytes, SYBR Green DNA, 72 h; at 28.7 µM (top of the series); parasite line B
Results filed as inconclusive are left out.
measured endpoint: activity, negative = inhibition (%)
Supply the numeric figure in %, leaving out any unit text.

Some compounds with known activity, negative = inhibition results, for comparison:
O=S(=O)(O)CC(S)CS (stereo not given)    -2.53
O=S(=O)(O)CCCS(=O)(=O)O    2.06

Inquiry: Identify activity, negative = inhibition associated with the compound CO/N=C(/C(=O)N[C@@H]1C(=O)N2C(C(=O)O)=C(COC(N)=O)CS[C@H]12)c1ccco1
Reply text: 2.26

Inquiry: Identify activity, negative = inhibition associated with the compound Cc1cc(C)c(NC(=O)C[C@H](CC(=O)O)c2cccc3ccccc23)c(C(=O)N2CCC3(CCCC3)CC2)c1
Reply text: -1.81

Inquiry: Identify activity, negative = inhibition associated with the compound N#Cc1ccc2c(c1)N(CCCN1CCC(O)CC1)c1ccccc1S2
Reply text: -26.8

Inquiry: Identify activity, negative = inhibition associated with the compound COc1ccc(C(=O)CCC(=O)O)c2ccccc12
Reply text: 8.35

Inquiry: Identify activity, negative = inhibition associated with the compound CC(=O)N[C@@H]1C(O[C@H]2O[C@H](C(=O)O)C(O)[C@H](O)[C@H]2O)[C@H](O)[C@@H](CO)O[C@H]1O[C@@H]1C(C(=O)O)O[C@@H](O[C@H]2[C@H](O)[C@@H](CO)OC(O)[C@@H]2NC(C)=O)[C@H](O)[C@H]1O (stereo not given in full)
Reply text: 2.2

Inquiry: Identify activity, negative = inhibition associated with the compound COC(=O)c1ccccc1O
Reply text: 5.19

Inquiry: Identify activity, negative = inhibition associated with the compound O=P(O)(O)OC[C@H](O)CO
Reply text: 9.77

Inquiry: Identify activity, negative = inhibition associated with the compound COc1ccc(/C=N/NC(=O)c2ccncc2)c(C(=O)O)c1OC
Reply text: -6.37

* * *

test: qHTS Assay for Lipid Storage Modulators (AID 1519); further: on the % scale 0 is the no-effect control and ±100 the full control effect
measurement parameters: Drosophila S3 cells, BODIPY lipid droplet/cell ratio, laser cytometry; at 25.7 µM (top of the series); cells loaded with oleic acid
Results filed as inconclusive are left out.
Listing of recorded activity change, negative = inhibition by entry.
Supply the numeric figure in %, leaving out any unit text.

Some compounds with known activity change, negative = inhibition results, for comparison:
Cc1ncc(C[n+]2csc(CCO)c2C)c(N)n1    -1.32
CC1(C)S[C@@H]2[C@H](NC(=O)C3(N)CCCCC3)C(=O)N2[C@H]1C(=O)O    -0.399
CC(=O)N=c1sc(S(N)(=O)=O)nn1C    -5.24
CN1CCc2c(c3ccccc3n2Cc2ccccc2)C1    -1.45
O=C1NCCN1c1ncc([N+](=O)[O-])s1    -0.923

Inquiry: Identify activity change, negative = inhibition associated with the compound COc1cc(S(C)=O)ccc1-c1nc2ncccc2[nH]1 (centres undefined)
Reply text: 0.171

Inquiry: Identify activity change, negative = inhibition associated with the compound CCCOc1cc(N)ccc1C(=O)OCCN(CC)CC
Reply text: -0.11

Inquiry: Identify activity change, negative = inhibition associated with the compound O=C(O)Cc1cc(I)c(Oc2ccc(O)c(I)c2)c(I)c1
Reply text: -0.457

Inquiry: Identify activity change, negative = inhibition associated with the compound CNC(=O)c1c(I)c(C(=O)NCC(=O)Nc2c(I)c(C(=O)O)c(I)c(C(=O)NCCO)c2I)c(I)c(N(C)C(C)=O)c1I
Reply text: -2.02

* * *

test: Drug repurposing screens with cells derived from glioblastoma tumor samples (AID 1345199); further: on the % scale 0 is the no-effect control and ±100 the full control effect; nearly all actives have a fitted effect of over 40% in size
measurement parameters: GBM patient neurospheres viability, ATP luminescence, 48 h; at 45.9 µM (top of the series); tumour line D
Records with an inconclusive call do not appear.
measured endpoint: activity, negative = cell killing (%)
Supply the numeric figure in %, leaving out any unit text.

Some compounds with known activity, negative = cell killing results, for comparison:
Cc1cc(=O)c(C(=O)N[C@@H](C(=O)N[C@@H]2C(=O)N3C(C(=O)O)=C(CSc4nnnn4C)CS[C@H]23)c2ccc(O)cc2)c[nH]1    13
CN1c2c(nc(N)[nH]c2=O)NCC1CNc1ccc(C(=O)NC(CCC(=O)O)C(=O)O)cc1 (stereo unspecified)    -5.57
CC1=CCC2CC1C2(C)C (stereo unspecified)    2.05

Inquiry: Identify activity, negative = cell killing associated with the compound CC(C)(CO)[C@@H](O)C(=O)NCCCC(=O)O
Reply text: -4.32

Inquiry: Identify activity, negative = cell killing associated with the compound CC(=O)Oc1cccc(C(=O)O)c1OC(C)=O
Reply text: -8.06

Inquiry: Identify activity, negative = cell killing associated with the compound S=C1SCN(Cc2ccccc2)CN1Cc1ccccc1
Reply text: -15

Inquiry: Identify activity, negative = cell killing associated with the compound CO[C@H]1C[C@@H]2CC[C@@H](C)[C@@](O)(O2)C(=O)C(=O)N2CCCC[C@H]2C(=O)O[C@H]([C@H](C)C[C@@H]2CC[C@@H](OC(=O)C(C)(CO)CO)[C@H](OC)C2)CC(=O)[C@H](C)/C=C(\C)[C@@H](O)[C@@H](OC)C(=O)[C@H](C)C[C@H](C)/C=C/C=C/C=C/1C
Reply text: -16

Inquiry: Identify activity, negative = cell killing associated with the compound CN[C@@H]1[C@H](O[C@H]2[C@H](O[C@H]3[C@H](O)[C@@H](O)[C@H](N=C(N)N)[C@@H](O)[C@@H]3N=C(N)N)O[C@@H](C)[C@]2(O)CO)O[C@@H](CO)[C@H](O)[C@H]1O
Reply text: -12.4

Inquiry: Identify activity, negative = cell killing associated with the compound CC(O)[C@H]1CC[C@H]2[C@@H]3CC[C@@H]4C[C@@H](O)CC[C@]4(C)[C@H]3CC[C@]12C (stereo partly specified)
Reply text: -23.2
